experimental system: PDE4A5 (Rattus norvegicus)
Construct: targets used in the assays are full-length proteins (as opposed to simply the catalytic domain); expressed in transfected cells; host or cells: Schizosaccharomyces pombe, PDE gene integrated in place of cgs2
Sequence (P54748 1-844): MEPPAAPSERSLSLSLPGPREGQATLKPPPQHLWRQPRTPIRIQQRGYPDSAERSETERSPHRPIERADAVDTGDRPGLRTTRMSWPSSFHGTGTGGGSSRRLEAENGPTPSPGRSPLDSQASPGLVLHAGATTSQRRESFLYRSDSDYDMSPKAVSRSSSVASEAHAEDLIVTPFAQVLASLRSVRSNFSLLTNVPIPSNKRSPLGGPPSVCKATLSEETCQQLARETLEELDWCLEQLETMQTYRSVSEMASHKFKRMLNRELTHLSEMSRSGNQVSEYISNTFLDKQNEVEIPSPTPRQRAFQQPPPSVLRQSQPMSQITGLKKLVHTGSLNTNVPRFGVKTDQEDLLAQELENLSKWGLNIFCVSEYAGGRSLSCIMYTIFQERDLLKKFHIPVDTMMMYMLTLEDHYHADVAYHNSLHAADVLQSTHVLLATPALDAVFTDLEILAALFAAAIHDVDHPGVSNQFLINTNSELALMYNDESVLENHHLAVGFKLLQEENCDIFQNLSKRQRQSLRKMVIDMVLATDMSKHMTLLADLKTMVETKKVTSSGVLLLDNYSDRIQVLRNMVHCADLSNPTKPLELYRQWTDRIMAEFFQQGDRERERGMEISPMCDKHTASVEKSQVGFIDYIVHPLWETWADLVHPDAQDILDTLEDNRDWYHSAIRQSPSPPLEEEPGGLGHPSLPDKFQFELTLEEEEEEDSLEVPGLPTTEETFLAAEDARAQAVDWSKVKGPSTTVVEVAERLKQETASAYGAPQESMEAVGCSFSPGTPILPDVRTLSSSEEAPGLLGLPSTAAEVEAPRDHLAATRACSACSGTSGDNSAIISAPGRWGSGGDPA
assay details: 5FOA growth assay in fission yeast strain expressing PDE4A5
Type: cell-based
conditions: 20 uM
Exercise: for every item that follows, state its recorded 1 Assay (20 uM) 4A5.
Answers are plain numbers, in ND ND ND ND.

Sample records with 1 Assay (20 uM) 4A5:
COC(=O)C1/C(=C/c2cccc(OC)c2O)C(=O)N(c2ccccc2F)C1C (centres unmarked)    1.80
COC(=O)c1sc(SC)c(C#N)c1-c1ccco1    2.07
CCOC(=O)c1sc2sc(C(=O)OCC)c(-c3ccc(Cl)cc3)c2c1N    0.582
COC(=O)C1=C(C)N(c2ccccc2)/C(=C/c2cccs2)C1=O    0.06

# input for lookup
Query: // Input: COC(=O)C1=C(C)N(c2ccc(C(C)C)cc2)C(=O)/C1=C\c1ccco1 . Output its 1 Assay (20 uM) 4A5 only.
Reply: 1.73

Values were extracted from patent US20100227853A1.
